# Measured On: T1, UL131A expressed from MVA in BHK-21 cells (human cytomegalovirus, UniProt F5HET4 19-129)
# T1 construct: whole, on cells
# Assay Details: intracellular FC, MVA-infected BHK-21

| Binder | binding result |
| --- | --- |
| 62-100 (antibody, V domains shown, also called NAb 62-100) VH: QVQLQQPGAELVRPGASVKLSCKASGYTFTSYWMNWVKQRPGQGLEWIGMIDPSDSETHYNQMFKDKATLTVDKSSSTAYMQLSSLTSEDSAVYYCSNGYSSFAYWGQGTLVTVSV VL: DIVLTQSPATLSVTPGDSVSLSCRASQSISNNLHWYQQKSHESPRLLIKYASQSISGIPSRFSGSGSGTDFTLSINSVETEDFGKYVCQQSNSWPLTFGSGTKLEIK | no binding |
| 21E9 (antibody, V domains shown, also called NAb 21E9) VH: QIQLVQSGPELKKPGETVKISCKASGYTFTIYGMNWVKQAPGKGLKWMGWINTYTGEPTYADDFRGRFAFSLETSASTAYLQINNLKNEDTATYFCARKGYYGSSGYFDYWGQGTTLTVSS VL: SIVMTQTPKFLLVSAGDRVTITCKASQSVSNDVSWYQQKPGQSPKLLIYYASNRYTGVPDRFTGSGYGTDFTFTISTVQAEDLAVYFCQQDYSSPWTFGGGTKLEIK | no binding |
| 1B2 (antibody, V domains shown, also called NAb 1B2) VH: EVQLVESGGVLVKPGGSLKLSCAASGFTFSDYYMYWVRQTPEKRLEWVATISDDGNYTNYPDSVKGRFTISRDNAKNNLYLQMSSLKSEDTAMYYCARGWLLPVFAYWGQGTLVTVSA VL: DIVLTQSPATLSVTPGDSVSLSCRASQSIGNNLHWYQQKSHESPRLLIKYTSQSISGIPSRFSGSGSGTDFTLNINSVETEDFGVYFCQQSNRWPWTFGGGTKLEIK | no binding |

These measurements were taken from patent US20180230200A1.
